Reported Population Normal (%) values for the following molecules.
test system: Fibroblast; experiment: Multiplex assay against human fibroblast; type: toxicity, cell-based; conditions: 24 h, 1 µM, compound concentration 1 uM, replicate 1
resultType: Population Normal (%)

molecule=Cl.Oc1ccc2c3c1O[C@H]1c4[nH]c5c(c4C[C@@]4(O)[C@@H](C2)N(CC2CC2)CC[C@]314)C[C@@]1(O)[C@H]2Cc3ccc(O)c4c3[C@@]1(CCN2CC1CC1)[C@H]5O4 resulttype="Population Normal (%)" uom=% observed=85
molecule=O=C(Nc1ccc(Cl)cc1)Nc1cccc(-c2cccc(N3CCCC3)n2)c1 resulttype="Population Normal (%)" uom=% observed=86
molecule="CCOC(=O)c1c(C)[nH]c2ccc3c(c12)CN1CCc2cc(OC)ccc2C1O3 (stereo unspecified)" resulttype="Population Normal (%)" uom=% observed=86
molecule="CN1CCC(=C2c3ccccc3CC(=O)c3sccc32)CC1.O=C(O)/C=C/C(=O)O [KETOTIFEN FUMARATE]" resulttype="Population Normal (%)" uom=% observed=88
molecule=CCCS(=O)(=O)Nc1ccc(F)c(C(=O)c2c[nH]c3ncc(Cl)cc23)c1F resulttype="Population Normal (%)" uom=% observed=88
molecule=CN1CCN(C(=O)C(C)(C)c2ccc(C(=O)Nc3cn4cc(-c5cc(C(C)(C)C)cc(C(C)(C)C)c5)ccc4n3)cc2)CC1 resulttype="Population Normal (%)" uom=% observed=83
molecule=CCOc1cc(C(=O)N2CCC(N3CCN(C)CC3)CC2)ccc1Nc1ncc2c(n1)N(C1CCCC1)c1ccccc1C(=O)N2C resulttype="Population Normal (%)" uom=% observed=88
molecule=Cc1ccc2nc(NCCN)c3ncc(C)n3c2c1.O=C(O)C(F)(F)F.O=C(O)C(F)(F)F resulttype="Population Normal (%)" uom=% observed=88
molecule=CCNc1cc(N[C@H]2CC[C@H](O)CC2)nc(Nc2ccc3c(ccn3Cc3ccccc3)c2)n1 resulttype="Population Normal (%)" uom=% observed=78
molecule=O=C1NC(=O)C(c2cnc3ccccn23)=C1c1cn2c3c(cc(F)cc13)CN(C(=O)N1CCCCC1)CC2 resulttype="Population Normal (%)" uom=% observed=92
molecule="COc1cc2ncnc(Nc3ccc(F)c(Cl)c3)c2cc1NC(=O)/C=C/CN1CCCCC1 [DACOMITINIB ANHYDROUS]" resulttype="Population Normal (%)" uom=% observed=69
molecule=CCCS(=O)(=O)c1nc(NC2CC2)cc(-c2ccc3c(ccn3C3CC(C)(C)NC(C)(C)C3)c2)n1 resulttype="Population Normal (%)" uom=% observed=84
molecule=NC(=O)c1cccc(-c2cc(Nc3ccc(OC(F)(F)F)cc3)ncn2)c1 resulttype="Population Normal (%)" uom=% observed=87
molecule=O=C(Cc1ccc(-c2ccc(OCCN3CCOCC3)cc2)cn1)NCc1ccccc1 resulttype="Population Normal (%)" uom=% observed=85
molecule=Cc1cn(-c2cc(NC(=O)c3ccc(C)c(Nc4nccc(-c5cccnc5)n4)c3)cc(C(F)(F)F)c2)cn1 resulttype="Population Normal (%)" uom=% observed=86
molecule=COc1cccc2cc(-c3nc([C@H]4CC[C@H](C(=O)O)CC4)n4ncnc(N)c34)[nH]c12 resulttype="Population Normal (%)" uom=% observed=66

----------
tested on: HEK-293T; assay: Multiplex assay against HEK293T; format: toxicity, cell-based; conditions: human, 12 h, 1 µM, compound concentration 1 uM, replicate 1
resultType: Population Normal (%)

compound=O=C(Cc1ccc(-c2ccc(OCCN3CCOCC3)cc2)cn1)NCc1ccccc1 observed=87
compound=O=C(Nc1cccnn1)N1CCC(=Cc2cccc(Oc3ccc(C(F)(F)F)cn3)c2)CC1 observed=83
compound=C=C1/C(=C\C=C2/CCC[C@]3(C)[C@@H]([C@H](C)/C=C/[C@H](C)C(C)C)CC[C@@H]23)C[C@@H](O)C[C@@H]1O observed=76
compound="CCOC(=O)c1c(C)[nH]c2ccc3c(c12)CN1CCc2cc(OC)ccc2C1O3 (stereo not drawn)" observed=85
compound=CCc1cccc(CC)c1NC(=O)c1nn(C)c2c1CCc1cnc(Nc3ccc(C(=O)NC4CCN(C)CC4)cc3OC(F)(F)F)nc1-2 observed=88
compound=O=C(Nc1ccc(-n2nc(-c3cccnc3)cc2C(F)(F)F)cn1)c1ccc(-c2ccccc2)c(F)c1 observed=78
compound=CCc1cccc(CC)c1NC(=O)c1nn(C)c2c1CCc1cnc(Nc3ccc(N4CCN(C)CC4)cc3OC)nc1-2 observed=81
compound="CN1CCC(=C2c3ccccc3CC(=O)c3sccc32)CC1.O=C(O)/C=C/C(=O)O [KETOTIFEN FUMARATE]" observed=86
